Quick reference: growth of the listed items.
System: MDA-MB-468 breast
Assay: NCI-60 one-dose screen, 48 h (100 = growth as untreated, 0 = no growth, -100 = all killed)
Conditions: 10 µM unless noted
Description: Growth inhibition of the MDA-MB-468 human Breast tumor cell line is measured as a screen for anti-cancer activity. Cells are grown in 96 well plates and exposed to the test compound for 48 hours. Compounds are tested at a single concentration, which is 10^-5 M for most compounds. The reported endpoint is percent growth (GI% or GIPRCNT), where numbers from 0 - 100% represent growth inhibition, and numbers from -100% - 0 represent cell death. […]
Compounds without any hit were thinned out: in the full panel of roughly 83,000, 20% have a hit. Calls of active or inactive are those of the source. How the source made its calls: active means growth percent below 10; inactive means the rest.

Example entries and their recorded answers appear below.
{"columns": ["COMPOUND", "MEASURED PARAMETER", "RESULT"],
 "data": [
  ["COc1ccc(C2NC(=O)c3cc4c(cc3N2)OCO4)cc1 (stereo not given)", "growth", "-1.6% (active)"],
  ["N=C(N)c1ccc(-c2ccc(-c3ccc(-c4cccs4)s3)s2)cc1F", "growth", "79.5% (inactive)"],
  ["CC(=NCc1ccccc1)c1ccc(O)cc1O", "growth", "118% (inactive)"]
]}

Notebook: `COc1ccc(-c2cc(=O)n(-c3nc4ccccc4[nH]3)[nH]2)cc1OC` , growth read as 83% (inactive)

Notebook: `CCCCCOC(=O)c1cccc(NC(=O)CN(CC)CC)c1` , growth read as 106% (inactive)

Notebook: `CC(=O)c1ccc2oc(=O)n(Cc3ccc(C#N)cc3)c(=O)c2c1` , growth read as 108% (inactive)

###

system: HCT-116 colon; test: NCI-60 one-dose screen, 48 h; details: 10 µM
About 83,000 compounds went through this panel and 20% of them were active in at least one assay; those are over-represented in the sample as a whole. Activity calls are given as the source filed them. How the source made its calls: active means growth percent below 10; inactive means the rest.
Select the correct class. Options are active, inactive and nothing else.

Answered examples (2):
{"columns": ["COMPOUND", "LABEL CLASS"],
 "data": [
  ["COc1cccc(O)c1/C=C1\\SCc2cc3c(OC)cccc3[o+]c21", "inactive"],
  ["COc1ccc2[nH]cc(-c3nc(N)nnc3-c3cn(C)c4ncc(Br)cc34)c2c1", "active"]
]}

Query :: # lookup: test call for COc1ccc(C2c3sc4ccc(C)cc4c3Oc3nc[nH]c(=O)c32)cc1 (configuration not stated)
Result :: inactive

Query :: # lookup: test call for `O=C1S/C(=C\c2ccc([N+](=O)[O-])cc2)C(=O)N1CCN1CCCCC1`
Result :: inactive

###

system: MDA-MB-468 breast; assay: NCI-60 one-dose screen, 48 h; details: 10 µM unless noted
Compounds without any hit were thinned out: in the full panel of roughly 83,000, 20% have a hit. Activity calls are given as the source filed them. The calls were made as follows: active = growth percent below 10; inactive = the rest.
Select the correct class. Options are active, inactive and nothing else.

Answered examples (2):
{"columns": ["COMPOUND", "LABEL CLASS"],
 "data": [
  ["Cc1cccc(C)c1-c1cc(Cc2ccc(Cl)cc2)c(=O)[nH]n1", "inactive"],
  ["CCCCCCCCCCC(C(O)c1ccccc1)N1CCCCC1 (stereo not given)", "active"]
]}

Query :: # lookup: test call for `Cc1ccc(-c2cc(-c3ccc(C)cc3)nc(N3CCN(CCNc4ccnc5cc(Cl)ccc45)CC3)n2)cc1`
Result :: inactive

Query :: # lookup: test call for `Nc1c(C(=O)Nc2cccc3cnccc23)sc2nc3c(cc12)CN(Cc1ccccc1)CC3`
Result :: inactive

Query :: # lookup: test call for `COC(=O)c1c2c(c(C)[n+]([O-])c1C)C(=O)C=C(NCc1ccc(F)cc1)C2=O`
Result :: active
